Target: GST-DYRK1A-ΔC (amino acids 1–499 of rat DYRK1A) (Rattus norvegicus)
Construct: containing amino acids 1–499 of rat DYRK1A; made in house; host or cells: E. coli
Test: Kinase-GLO luminescent assay of DYRK1A catalytic activity
Format: biochemical
Conditions: 1 µM inhibitor concentration; residual activity relative to control without inhibitor; read-out: DYRK1A residual activity
Measured remaining activity at 1 µM by item
readout_name: remaining activity at 1 µM

In [3]: df
Out[3]:
                                    molecule  recorded_measurement
 0  COc1ccc2c(c1)[nH]c1c(/C=C/c3ccccc3)nccc12                   27%
 1       C#CCn1c2c(Br)nccc2c2ccc(Cl)c(Cl)c21                   95%
 2            COc1ccc2c3ccnc(C)c3n(CC#N)c2c1                    8%
 3             COc1cc2[nH]c3c(C)nccc3c2cc1Br                   88%
 4      CCOC(=O)Cn1c2cc(OC)ccc2c2ccnc(Cl)c21                   35%
 5   COc1c(Br)cc2c([nH]c3c(C)nc(Br)cc32)c1Br                  126%
 6        CCCCn1c2c(C)nccc2c2ccc(OC)c(Br)c21                   96%
 7           Cc1nccc2c1[nH]c1c(Cl)c(Cl)ccc12                    3%
 8             COc1cc2[nH]c3c(C)nccc3c2cc1Cl                   92%
 9       COc1ccc2c3ccnc(C)c3n(CCN3CCCC3)c2c1                   48%
10       COc1ccc2c3ccnc(Cl)c3n(CCCN(C)C)c2c1                   63%
11       COc1ccc2c3ccnc(C)c3n(Cc3ccccc3)c2c1                   88%
12  COc1ccc2c3ccnc(C)c3n(C/C=C/c3ccccc3)c2c1                    3%
13        CCCCn1c2cc(OC)c(Cl)cc2c2ccnc(C)c21                   94%
14     COc1ccc2c3ccnc(C)c3n(CCOc3ccccc3)c2c1                   40%
15   COc1ccc(Cn2c3cc(OC)ccc3c3ccnc(C)c32)cc1                  100%
16        CCCCn1c2c(C)nccc2c2ccc(OC)c(Cl)c21                  104%
17       COc1ccc2c3ccnc(C)c3n(Cc3ccncc3)c2c1                   59%
18         COc1ccc2c3ccnc(C)c3n(CCN(C)C)c2c1                  107%
19    COc1ccc2c(c1)C(O)c1c-2ccnc1C (racemic)                   59%
20    Cc1nccc2c3ccc(Cl)c(Cl)c3n(CCCN(C)C)c12                   47%
21        CNC(=O)Cn1c2cc(OC)ccc2c2ccnc(C)c21                   64%

Data provenance is paper PMC7765920.
